experimental_system: Hemagglutinin of influenza A/Solomon Islands/3/06 (H1N1), on inactivated whole virions (Influenza A virus A/Solomon …)
protocol_description: ELISA, B cell culture supernatant on inactivated whole virions
experimental_readout: OD450
Record the result as a number with its unit.

Entry TCN-535 (5246_P19) (antibody, V domains shown) VH: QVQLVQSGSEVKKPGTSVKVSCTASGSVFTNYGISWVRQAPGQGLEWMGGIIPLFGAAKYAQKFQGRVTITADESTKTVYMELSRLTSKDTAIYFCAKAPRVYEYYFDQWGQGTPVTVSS VL: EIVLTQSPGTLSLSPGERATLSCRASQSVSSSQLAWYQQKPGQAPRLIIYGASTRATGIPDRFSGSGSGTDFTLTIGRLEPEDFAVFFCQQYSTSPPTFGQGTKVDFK has what OD450?
3.43 OD450

How about this binder: TCN-555 (5246_L16) (antibody, V domains shown) VH: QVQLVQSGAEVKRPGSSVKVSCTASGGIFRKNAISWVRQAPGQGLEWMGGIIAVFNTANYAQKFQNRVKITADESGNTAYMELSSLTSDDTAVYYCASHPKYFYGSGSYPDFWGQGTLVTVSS VL: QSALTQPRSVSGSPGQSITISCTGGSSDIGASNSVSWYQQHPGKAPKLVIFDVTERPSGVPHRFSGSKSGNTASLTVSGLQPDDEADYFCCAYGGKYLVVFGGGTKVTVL
2.89 OD450

Another: TCN-550 (5096_F06) (antibody, V domains shown) VH: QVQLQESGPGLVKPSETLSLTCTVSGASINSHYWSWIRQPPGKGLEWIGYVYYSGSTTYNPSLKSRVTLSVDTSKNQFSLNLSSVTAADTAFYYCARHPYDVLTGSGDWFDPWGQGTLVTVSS VL: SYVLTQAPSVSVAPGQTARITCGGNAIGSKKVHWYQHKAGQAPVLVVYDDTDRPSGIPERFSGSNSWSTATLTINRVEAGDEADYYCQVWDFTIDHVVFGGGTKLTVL
0.06 OD450

Request: TCN-545 (5082_I15) (antibody, V domains shown) VH: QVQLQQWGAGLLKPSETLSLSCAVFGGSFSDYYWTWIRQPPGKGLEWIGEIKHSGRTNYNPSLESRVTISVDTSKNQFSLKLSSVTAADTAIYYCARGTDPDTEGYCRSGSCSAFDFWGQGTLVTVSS VL: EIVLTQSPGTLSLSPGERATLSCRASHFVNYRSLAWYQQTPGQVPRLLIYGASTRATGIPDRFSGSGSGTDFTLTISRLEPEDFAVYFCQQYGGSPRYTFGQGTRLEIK
3.32 OD450

Again, but for TCN-552 (5249_I23) (antibody, V domains shown) VH: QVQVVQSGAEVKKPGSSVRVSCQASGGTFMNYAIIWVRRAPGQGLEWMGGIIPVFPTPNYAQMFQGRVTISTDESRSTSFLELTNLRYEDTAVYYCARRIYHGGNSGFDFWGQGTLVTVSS VL: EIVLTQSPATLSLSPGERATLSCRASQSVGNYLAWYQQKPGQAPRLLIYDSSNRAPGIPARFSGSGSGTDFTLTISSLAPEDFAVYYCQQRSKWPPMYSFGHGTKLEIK
3.57 OD450

Next binder up: TCN-532 (5262_H18) (antibody, V domains shown) VH: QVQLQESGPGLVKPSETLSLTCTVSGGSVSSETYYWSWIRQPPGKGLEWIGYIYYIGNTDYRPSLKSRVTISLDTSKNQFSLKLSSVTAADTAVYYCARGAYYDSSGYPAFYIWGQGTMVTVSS VL: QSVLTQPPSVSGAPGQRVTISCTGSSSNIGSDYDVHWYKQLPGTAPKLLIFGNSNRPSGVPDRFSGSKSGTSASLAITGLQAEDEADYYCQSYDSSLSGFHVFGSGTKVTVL
0.06 OD450

// same read-out, input: TCN-533 (5256_A17) (antibody, V domains shown) VH: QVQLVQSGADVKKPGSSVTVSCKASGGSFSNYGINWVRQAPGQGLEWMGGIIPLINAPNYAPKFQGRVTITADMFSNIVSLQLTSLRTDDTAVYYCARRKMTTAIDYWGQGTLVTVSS VL: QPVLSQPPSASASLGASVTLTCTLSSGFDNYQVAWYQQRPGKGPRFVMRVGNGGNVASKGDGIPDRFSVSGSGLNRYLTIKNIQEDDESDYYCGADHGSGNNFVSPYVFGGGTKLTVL
3.54 OD450

What do you have for TCN-540 (5060_F05) (antibody, V domains shown) VH: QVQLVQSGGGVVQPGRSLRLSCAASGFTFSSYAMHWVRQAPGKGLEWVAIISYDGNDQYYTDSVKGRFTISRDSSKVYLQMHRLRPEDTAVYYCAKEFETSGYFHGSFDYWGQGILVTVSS VL: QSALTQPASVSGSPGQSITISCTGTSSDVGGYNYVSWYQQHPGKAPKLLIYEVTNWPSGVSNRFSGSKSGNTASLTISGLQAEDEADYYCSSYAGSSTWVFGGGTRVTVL ?
0.07 OD450

Now consider TCN-557 (5081_A04) (antibody, V domains shown) VH: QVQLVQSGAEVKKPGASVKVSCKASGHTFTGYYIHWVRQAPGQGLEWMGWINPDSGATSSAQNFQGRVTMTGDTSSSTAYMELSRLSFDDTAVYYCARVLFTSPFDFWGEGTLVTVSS VL: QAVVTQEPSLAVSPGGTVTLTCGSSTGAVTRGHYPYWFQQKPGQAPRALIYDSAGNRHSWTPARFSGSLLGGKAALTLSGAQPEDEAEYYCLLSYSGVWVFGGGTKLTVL and answer again.
2.32 OD450

Then TCN-543 (5081_G23) (antibody, V domains shown) VH: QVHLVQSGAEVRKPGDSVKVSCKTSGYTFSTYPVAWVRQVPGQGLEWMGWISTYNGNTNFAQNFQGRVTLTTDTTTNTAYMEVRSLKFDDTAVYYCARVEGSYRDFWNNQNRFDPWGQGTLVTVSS VL: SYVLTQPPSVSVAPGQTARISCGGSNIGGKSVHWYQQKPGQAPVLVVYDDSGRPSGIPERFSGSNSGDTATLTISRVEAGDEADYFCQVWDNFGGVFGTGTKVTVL ?
3.63 OD450

Sourced from patent US20120207760A1
